- target-system: Factor IXa (Homo sapiens (Human))
- Sequence (P00740 227-461): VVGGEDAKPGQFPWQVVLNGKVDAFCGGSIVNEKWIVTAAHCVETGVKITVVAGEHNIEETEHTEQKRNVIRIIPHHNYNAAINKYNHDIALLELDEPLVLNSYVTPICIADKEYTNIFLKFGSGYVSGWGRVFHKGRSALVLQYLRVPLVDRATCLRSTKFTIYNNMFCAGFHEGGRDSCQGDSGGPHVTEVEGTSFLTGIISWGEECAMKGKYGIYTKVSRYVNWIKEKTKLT
- Sequence (P00740 47-191 partner): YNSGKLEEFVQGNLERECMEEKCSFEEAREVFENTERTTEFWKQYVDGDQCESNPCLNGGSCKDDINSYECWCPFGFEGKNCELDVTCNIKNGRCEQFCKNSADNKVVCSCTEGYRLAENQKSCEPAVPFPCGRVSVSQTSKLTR
- assay-explanation: Determination of inhibitory activity against Factor IXa (cleavage of fluorescent peptide CH3SO2-D-CHG-Gly-Arg-AFC)
- Type: biochemical
- run-parameters: read-out: hFIXa IC50
readout: IC50 (nM)
One number for each entry, in nM.

Give the measured IC50 of COc1cc([C@@H](CNC(=O)c2c(Cl)cc(-n3cnc(C)n3)cc2Cl)c2cccc(F)c2)nc2c(F)ccc(C)c12 .
52.2

Give the measured IC50 of COc1cc2nc(C(CNC(=O)c3c(Cl)cc(-n4cnc(C)n4)cc3Cl)c3cccc(CC(=O)O)c3)[nH]c2cc1Cl (centres unmarked) .
1.75

Dear colleague, could you please provide IC50 for the compounds listed below?
1. Cc1ncn(-c2cc(Cl)c(C(=O)NCC(c3cccc(F)c3)c3nc4c(C)cc(Cl)cc4[nH]3)c(Cl)c2)n1 (centres unmarked)
2. Cc1ncn(-c2cc(Cl)c(C(=O)NC[C@@H](c3cccc(F)c3)c3nc4ccc(Cl)cc4[nH]3)c(Cl)c2)n1
3. Cc1ncn(-c2cc(Cl)c(C(=O)NC[C@@H](c3cccc(F)c3)c3cc(C)c4[nH]c(C)nc4c3)c(Cl)c2)n1
4. Cc1ccc2nc(C(CNC(=O)c3ccc(-n4cnnc4)cc3Cl)c3ccccc3)[nH]c2c1 (centres unmarked)

1: 6.18; 2: 9.78; 3: 75.2; 4: 53.5

Dear colleague, could you please provide IC50 for the compounds listed below?
1. Cc1cccc2nc([C@@H](CNC(=O)c3ccc(-n4cnnc4)cc3Cl)c3ccccc3)[nH]c(=O)c12
2. Cc1cc2nc(C(CNC(=O)c3c(F)cc(-n4cnnc4)cc3Cl)c3ccccc3)[nH]c2cc1C (centres unmarked)
3. Cc1ncn(-c2cc(Cl)c(C(=O)NC[C@@H](c3cccc(F)c3)c3ccc4[nH]c(C)nc4n3)c(Cl)c2)n1
4. COc1ccc2nc(C(CNC(=O)c3c(Cl)cc(-n4cnc(C)n4)cc3Cl)c3cccc(F)c3)[nH]c2c1 (centres unmarked)
5. O=C(O)c1ccc2c(c1)ncn2-c1ccc(C(=O)NCC(c2cccc(F)c2)c2nc3c(F)ccc(Cl)c3c(=O)[nH]2)c(Cl)c1 (centres unmarked)
6. O=C(NC[C@@H](c1ccccc1)c1nc2ccc(Cl)cc2c(=O)[nH]1)c1ccc(-n2cnnc2)cc1Cl
7. COc1ncn(-c2ccc(C(=O)NCC(c3cccc(F)c3)c3nc4ccc(Cl)cc4[nH]3)c(Cl)c2)n1 (centres unmarked)

[16.8, 15.2, 16.9, 49.1, 3.32, 188, 65.8]

Give the measured IC50 of Cc1cc2nc(C(CNC(=O)c3c(Cl)cc(-c4cnc5ccccc5c4)cc3Cl)c3ccccc3)[nH]c2cc1C (centres unmarked) .
464
